Recorded pKd values for a group of binders are listed next.
Molecular target: T1, GAE domain of ADP-ribosylation factor-binding protein GGA3 (GGA3 GAE) (human, UniProt Q9NZ52 594-715)
T1 construct: also called GGA3 ear
T1 sequence (looked up): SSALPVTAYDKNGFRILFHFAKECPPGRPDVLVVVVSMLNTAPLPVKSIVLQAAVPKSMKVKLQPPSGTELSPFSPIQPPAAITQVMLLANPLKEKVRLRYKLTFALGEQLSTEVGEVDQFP
Conditions: both partners purified
No end group written: not given here. *: point of attachment. FITC = O=C1OC2(c3ccc(O)cc3Oc3cc(O)ccc32)c2ccc(NC(=S)*)cc21
Entry type: numeric. Quantity: pKd, the -log10 of concentration in molar units.

Task: Can you share its pKd? I mean this binder: DPDDGSYGEYQSYSEN [NP 460-485 (ZEBOV)]
Result: 4.97

Continuing:
Task: What value of measured pKd is listed for SSLADDFGEFSLFGEY [SYNRG 664-679 (Human)] ?
Result: 4.95

Task: Name the recorded pKd for {FITC}-DESDFGPLVGAD [FITC - RABEP1 435-446 (Human)] .
Result: 5.72

Task: Quick one: pKd for TSGNGDFGDWSAFNQA [CLINT1 366-381 (Human)] ?
Result: 4.46

Task: Which pKd reading was recorded for the binder SSPERGWSDYTSGANN [P/V/C 130-145 (NiV)] ?
Result: 4.32

Task: Any idea what pKd was measured for NLDESDFGPLVGADSVY [RABEP1 433-448 (Human)] ?
Result: 5.77
